assay-protocol: In vitro rat microsomal stability assay
Assay type: in vitro ADME, rat (Sprague-Dawley)
protocol-conditions: rat liver microsomes (Sprague-Dawley), 0.5 μM substrate, 0.25 mg/mL microsomal protein, pH 7.4, 37° C., NADPH, 30 minutes
Response key: condition met means RAT MICROSOMAL STABILITY (% REMAINING AFTER 30 MINUTES) >= 20%; condition not met means RAT MICROSOMAL STABILITY (% REMAINING AFTER 30 MINUTES) < 20%.

Check out these entries, answers already filled in.
INSERT INTO assay_data (molecule, classification) VALUES
  ('CN1CCC(c2ccc(C(F)(F)F)cc2)(C(O)c2ccccn2)CC1 (stereo not drawn) [Example 143]', 'condition met'),
  ('CN1CCC(c2ccc(OC(F)(F)F)cc2)(C(O)c2ccccn2)CC1 (stereo not drawn) [Example 145]', 'condition met'),
  ('CC(C)(C)OC(=O)N1CCC(c2cccc(OC(F)(F)F)c2)(C(O)c2ccccn2)CC1 (stereo not drawn) [Example 158]', 'condition not met'),
  ('OC(c1ccccn1)C1(c2cccc(OC(F)(F)F)c2)CCNCC1 (stereo not drawn) [Example 148]', 'condition met');

Entry CN1CCC(c2cccc(OC(F)(F)F)c2)(C(O)c2ccccn2)CC1 (stereo not drawn) [Example 146] : is its RAT MICROSOMAL STABILITY (% REMAINING AFTER 30 MINUTES) no less than 20%?
condition not met

Entry CN1CCC(c2ccccc2OC(F)(F)F)(C(O)c2ccccn2)CC1 (stereo not drawn) [Example 149] : is its RAT MICROSOMAL STABILITY (% REMAINING AFTER 30 MINUTES) no less than 20%?
condition met

Entry Cl.O[C@H](c1ccccn1)C1(c2ccc(Cl)c(Cl)c2)CC(F)(F)C1 [Example 111] : is its RAT MICROSOMAL STABILITY (% REMAINING AFTER 30 MINUTES) no less than 20%?
condition met

Entry OC(c1ccccn1)C1(c2ccccc2F)CCCO1 (stereo not drawn) [Example 102] : is its RAT MICROSOMAL STABILITY (% REMAINING AFTER 30 MINUTES) no less than 20%?
condition not met

Entry CN1CCC(c2ccc(Cl)c(Cl)c2)(C(O)c2ccccn2)CC1 (stereo not drawn) [Example 141] : is its RAT MICROSOMAL STABILITY (% REMAINING AFTER 30 MINUTES) no less than 20%?
condition met

###

target-or-test-system: human TRPV3 (Homo sapiens, UniProt Q8NET8)
Construct: expressed in transfected cells
assay-protocol: In vitro antagonism of recombinant human TRPV3 activation (FLIPR Tetra calcium assay)
Format: cell-based
protocol-conditions: HEK293 cells stably expressing human TRPV3; agonist 2-APB at 80 μM; actual measured value shown parenthetically; in most cases average of at least two runs; read-out: IC50
Categories are assigned from the measured IC50 using these intervals: low range (below 0.8 µM), mid range (0.8 µM to below 3 µM), high range (3 µM or more)

Check out these entries, answers already filled in.
INSERT INTO assay_data (compound, target_or_test_system, classification) VALUES
  ('OC(c1ccccn1)C1(C2CCC(F)(F)CC2)CCC1 (stereo not shown) [Example 274]', 'human TRPV3 (Homo sapiens, UniProt Q8NET8)', 'high range'),
  ('Nc1cccnc1C(O)C1(c2cccc(C(F)(F)F)c2)CCC1 (stereo not shown) [Example 120]', 'human TRPV3 (Homo sapiens, UniProt Q8NET8)', 'high range'),
  ('O[C@H](c1ccccn1)C1(c2cc(C(F)(F)F)ccn2)CCC1 [Example 123]', 'human TRPV3 (Homo sapiens, UniProt Q8NET8)', 'low range'),
  ('OC(c1ccccn1)C1(c2ccc(Cc3ccccc3)cc2)CCC1 (stereo not shown) [Example 25]', 'human TRPV3 (Homo sapiens, UniProt Q8NET8)', 'mid range');

Where would CN(C)N=C1CC(c2ccc(OC(F)(F)F)cc2)([C@H](O)c2ccccn2)C1 (stereo partly shown) [Example 267] land among the classes by reported IC50?
mid range

Where would Nc1cccnc1C(O)C1(c2cccc(OC(F)(F)F)c2)CCC1 (stereo not shown) [Example 124] land among the classes by reported IC50?
high range

Where would OC(c1ccccn1)C1(c2cc(C(F)(F)F)cc(C(F)(F)F)c2)CCC1 (stereo not shown) [Example 13] land among the classes by reported IC50?
low range

Where would OC(c1ccccn1)C1(c2nc3ccc(F)cc3s2)CCC1 (stereo not shown) [Example 300] land among the classes by reported IC50?
high range

###

assay-protocol: In vitro human microsomal stability assay
Type: in vitro ADME
protocol-conditions: human, microsomes, 0.5 h, 0.5 μM, pH 7.4
Recorded measurements of HUMAN MICROSOMAL STABILITY (% REMAINING AFTER 30 MINUTES), one per entry
Write the number in % without appending the unit.

Entry under review: OC(c1ccccn1)C1(c2cccnc2)CCC1 (stereo not drawn) . Reported HUMAN MICROSOMAL STABILITY (% REMAINING AFTER 30 MINUTES)?
80

###

target-or-test-system: human TRPV3 (Homo sapiens, UniProt Q8NET8)
Construct: expressed in transfected cells
Sequence (Q8NET8 1-790): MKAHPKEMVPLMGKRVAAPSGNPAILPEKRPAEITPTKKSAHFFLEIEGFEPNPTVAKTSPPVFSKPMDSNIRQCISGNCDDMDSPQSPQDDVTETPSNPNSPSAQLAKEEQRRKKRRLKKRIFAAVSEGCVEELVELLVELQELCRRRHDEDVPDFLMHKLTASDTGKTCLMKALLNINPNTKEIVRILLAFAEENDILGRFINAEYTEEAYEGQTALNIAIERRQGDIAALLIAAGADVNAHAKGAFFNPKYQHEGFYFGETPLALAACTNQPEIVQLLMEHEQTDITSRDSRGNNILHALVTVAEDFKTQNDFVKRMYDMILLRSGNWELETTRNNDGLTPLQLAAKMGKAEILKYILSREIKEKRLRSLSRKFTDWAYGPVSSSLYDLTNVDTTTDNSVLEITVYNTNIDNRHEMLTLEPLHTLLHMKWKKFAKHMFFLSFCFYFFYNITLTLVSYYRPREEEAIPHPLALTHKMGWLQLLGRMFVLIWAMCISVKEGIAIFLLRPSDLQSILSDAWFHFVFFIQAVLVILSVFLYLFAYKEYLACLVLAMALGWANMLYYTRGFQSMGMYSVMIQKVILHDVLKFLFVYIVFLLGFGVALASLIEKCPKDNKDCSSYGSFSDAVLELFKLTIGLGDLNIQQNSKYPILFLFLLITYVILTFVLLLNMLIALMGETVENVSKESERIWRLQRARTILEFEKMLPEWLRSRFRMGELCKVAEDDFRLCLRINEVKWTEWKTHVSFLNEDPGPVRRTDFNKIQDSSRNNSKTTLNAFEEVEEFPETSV
assay-protocol: In vitro antagonism of recombinant human TRPV3 activation (FLIPR Tetra calcium assay)
Assay type: cell-based
protocol-conditions: HEK293 cells stably expressing human TRPV3; agonist 2-APB at 80 μM; actual measured value shown parenthetically; in most cases average of at least two runs; read-out: IC50
metric: IC50 (nM)
Write the number in nM without appending the unit.

Entry under review: CC1(O)CC(c2cncc(C(F)(F)F)c2)(C(O)c2ccccn2)C1 (single isomer, unassigned) [Example 309] . Reported IC50?
3050

Entry under review: CC(c1cccc(F)c1)C1(C(O)c2ccccn2)CCC1 (stereo not shown) [Example 47] . Reported IC50?
2220

Entry under review: OC(c1ccccn1)C1(c2cccc(C(F)(F)F)c2)CCC1 (stereo not shown) [Example 6] . Reported IC50?
350

Entry under review: OC(c1ccccn1)C1(c2ccc(C(F)(F)F)c(F)c2)CCC1 (stereo not shown) [Example 17] . Reported IC50?
1100

Entry under review: C[C@]1(O)C[C@@](c2cccc(OC(F)(F)F)c2)([C@H](O)c2ccccn2)C1 [Example 262] . Reported IC50?
630

Entry under review: OC(CC1(c2ccc(C(F)(F)F)cc2)CCC1)c1ccccn1 (stereo not shown) [Example 75] . Reported IC50?
940

###

assay-protocol: In vitro human microsomal stability assay
Type: in vitro ADME
protocol-conditions: human, microsomes, 0.5 h, 0.5 μM, pH 7.4
metric: HUMAN MICROSOMAL STABILITY (% REMAINING AFTER 30 MINUTES)

INSERT INTO results (compound, result) VALUES
  ('OC1CC(c2cc(C(F)(F)F)ccn2)([C@H](O)c2ccccn2)C1 (stereo partly drawn) [Example 294]', '>85%'),
  ('OC(c1ccccn1)C1(c2ccc(Cl)c(Cl)c2)CCNCC1 (stereo not drawn) [Example 140]', '>85%');

Here is the next item to consider.
Entry under review: OC(c1ccccn1)C1(c2ccc(C(F)(F)F)cn2)CCC1 (stereo not drawn) [Example 115] . Reported HUMAN MICROSOMAL STABILITY (% REMAINING AFTER 30 MINUTES)?
>85%
